Cited source: the supplement of paper PMC11061612

Task for the reader: assign each of the following compounds its reported Bliss excess.
- System: EN (Endometrial Carcinoma)
- assay_text: Bliss excess, mean over the matrix (fraction); higher = more synergy;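 further: after 72 h of two-drug dosing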
# print the numeric value only

Q: Give the reported value of Bliss excess for this record: CN(C)CCCOc1ccc(-c2ccc3ncc4c(c3c2)n(C2CCOCC2)c(=O)n4C)cn1 [AZD0156] + O=C(c1cc(Cc2n[nH]c(=O)c3ccccc23)ccc1F)N1CCN(C(=O)C2CC2)CC1 [Olaparib] (first compound max 3 µM, partner max 3 µM)
Ans: -0.0292

Q: Give the reported value of Bliss excess for this record: Cc1c2c(nn1C)CSCc1cc(n(C)n1)CSc1cc(c3ccccc3c1)OCCCc1c(C(=O)O)n(C)c3c-2c(Cl)ccc13 [AZD5991] + C[C@@H]1COCCN1C2=NC(=NC(=C2)C3(CC3)[S@](=N)(=O)C)C4=C5C=CNC5=NC=C4 [AZD6738] (first compound max 1 µM, 7x7, partner max 10 µM)
Ans: -0.0039

Q: Give the reported value of Bliss excess for this record: COc1cc2ncnc(Nc3ccc(F)c(Cl)c3)c2cc1OCCCN1CCOCC1 [Gefitinib] + CC(C)n1c(=O)n(C)c2cnc3cc(F)c(-c4ccc(OCCCN5CCCCC5)nc4)cc3c21 [AZD1390] (first compound max 10 µM, 7x7, partner max 0.3 µM)
Ans: -0.0318

Q: Give the reported value of Bliss excess for this record: NC1(C(=O)N[C@@H](CCO)c2ccc(Cl)cc2)CCN(c2ncnc3[nH]ccc23)CC1 [Capivasertib] + C[C@@H]1COCCN1C2=NC(=NC(=C2)C3(CC3)[S@](=N)(=O)C)C4=C5C=CNC5=NC=C4 [AZD6738] (first compound max 10 µM, 7x7, partner max 10 µM)
Ans: -0.039

###

- System: MHH-PREB-1 (B-Cell Non-Hodgkin's Lymphoma)
- assay_text: Bliss excess, mean over the matrix (fraction); higher = more synergy
# binarize Bliss excess: threshold -0.04 inclusive, high side true (1), low side false (0)

Q: Does the reported Bliss excess for Cc1cc2ncnn2cc1Nc1ncc2c(n1)n(C1CCOCC1)c(=O)n2C [AZD7648] + CN(C)CCCOc1ccc(-c2ccc3ncc4c(c3c2)n(C2CCOCC2)c(=O)n4C)cn1 [AZD0156] (first compound max 10 µM, 7x7, partner max 1 µM) fall at or above the -0.04 mark?
Ans: true (1)

Q: Does the reported Bliss excess for COc1cccc(OCCCN)c1-c1cc(Nc2cnc(C#N)cn2)n[nH]1 [Prexasertib] + O=C(c1cc(Cc2n[nH]c(=O)c3ccccc23)ccc1F)N1CCN(C(=O)C2CC2)CC1 [Olaparib] (first compound max 1 µM, 7x7, partner max 10 µM) fall at or above the -0.04 mark?
Ans: false (0)

Q: Does the reported Bliss excess for CC(=O)c1c(C)c2cnc(Nc3ccc(N4CCNCC4)cn3)nc2n(C2CCCC2)c1=O [Palbociclib] + CC1(C)CCC(CN2CCN(c3ccc(C(=O)NS(=O)(=O)c4ccc(NCC5CCOCC5)c([N+](=O)[O-])c4)c(Oc4cnc5[nH]ccc5c4)c3)CC2)=C(c2ccc(Cl)cc2)C1 [Venetoclax] (first compound max 10 µM, 7x7, partner max 1 µM) fall at or above the -0.04 mark?
Ans: true (1)

Q: Does the reported Bliss excess for Cc1c2c(nn1C)CSCc1cc(n(C)n1)CSc1cc(c3ccccc3c1)OCCCc1c(C(=O)O)n(C)c3c-2c(Cl)ccc13 [AZD5991] + Cn1cnc2c(F)c(Nc3ccc(Br)cc3Cl)c(C(=O)NOCCO)cc21 [Selumetinib] (first compound max 1 µM, 7x7, partner max 3 µM) fall at or above the -0.04 mark?
Ans: true (1)

Q: Does the reported Bliss excess for C[C@@H](c1ccc2nccn2c1)n1nnc2ncc(-c3cnn(C)c3)nc21 [Savolitinib] + Cc1c2c(nn1C)CSCc1cc(n(C)n1)CSc1cc(c3ccccc3c1)OCCCc1c(C(=O)O)n(C)c3c-2c(Cl)ccc13 [AZD5991] (first compound max 1 µM, 7x7, partner max 1 µM) fall at or above the -0.04 mark?
Ans: true (1)

Q: Does the reported Bliss excess for COc1cccc(OCCCN)c1-c1cc(Nc2cnc(C#N)cn2)n[nH]1 [Prexasertib] + CN(C)CCCOc1ccc(-c2ccc3ncc4c(c3c2)n(C2CCOCC2)c(=O)n4C)cn1 [AZD0156] (first compound max 1 µM, 7x7, partner max 1 µM) fall at or above the -0.04 mark?
Ans: true (1)

Q: Does the reported Bliss excess for NC1(C(=O)N[C@@H](CCO)c2ccc(Cl)cc2)CCN(c2ncnc3[nH]ccc23)CC1 [Capivasertib] + C[C@@H]1COCCN1C2=NC(=NC(=C2)C3(CC3)[S@](=N)(=O)C)C4=C5C=CNC5=NC=C4 [AZD6738] (first compound max 10 µM, 7x7, partner max 10 µM) fall at or above the -0.04 mark?
Ans: false (0)
